Measured log2 fold change of degron read counts, listed per entry for reference.
- test.target: T1, CRBN, Q96SW2;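 also: pooled lentiviral library of zinc finger degron-EGFP fusions in mCherry-positive Jurkat cells, FACS-sorted after compound exposure, with degron abundance counted by next-generation sequencing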
- T1 chain: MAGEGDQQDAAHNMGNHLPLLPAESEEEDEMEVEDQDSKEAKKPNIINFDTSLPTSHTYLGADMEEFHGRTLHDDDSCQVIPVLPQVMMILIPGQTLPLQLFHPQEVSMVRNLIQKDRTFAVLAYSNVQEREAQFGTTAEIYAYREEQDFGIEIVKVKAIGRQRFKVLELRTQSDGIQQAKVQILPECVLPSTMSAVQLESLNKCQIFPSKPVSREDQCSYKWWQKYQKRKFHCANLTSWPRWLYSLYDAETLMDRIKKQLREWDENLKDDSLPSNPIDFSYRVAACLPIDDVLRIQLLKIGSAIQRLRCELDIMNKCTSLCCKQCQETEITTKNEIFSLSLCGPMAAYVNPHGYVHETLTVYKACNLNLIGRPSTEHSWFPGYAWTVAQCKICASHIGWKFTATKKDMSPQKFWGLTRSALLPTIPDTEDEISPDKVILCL
- assay.overview: log2 fold change of degron read counts, EGFP-low vs EGFP+ sorted cells (limma voom), compound-induced degradation; higher = more compound-induced degradation of the degron-EGFP fusion; degrons are variants of IKZF1/3 zinc finger 2; compound dose not given here
- condition: Jurkat; 18 h; compound: compound 19 (5-tert-butyl-thalidomide)
Whole data set: some 8,300 sequences, median “log2 fold change of degron read counts, EGFP-low vs EGFP+ sorted cells (limma voom), compound-induced degradation” near -1.1, cut for the highest 2% near 3.2. This excerpt belongs to a sample that is enriched for the highest values.

>  <entry.sequence>
FHCPICGHSFTQKGNLLRHIKL [46F_47H_49P_50I_52G_53H_54S_55F_67L_, Q9UKT9]

>  <log2 fold change of degron read counts>
-2.13

$$$$
>  <entry.sequence>
FTCEICGACFTQKGNLLRHIKL [46F_47T_49E_50I_52G_53A_54C_55F_67L_, Q9UKT9]

>  <log2 fold change of degron read counts>
1.77

$$$$
>  <entry.sequence>
FSCNQCGHKFTQKGNLLRHIKL [46F_47S_49N_50Q_52G_53H_54K_55F_67L_, Q9UKT9]

>  <log2 fold change of degron read counts>
-2.24

$$$$
>  <entry.sequence>
FDCEICGACFTQKGNLLRHIKL [46F_47D_49E_50I_52G_53A_54C_55F_67L_, Q9UKT9]

>  <log2 fold change of degron read counts>
1.52

$$$$
>  <entry.sequence>
FECEICGACFTQKGNLLRHIKL [46F_47E_49E_50I_52G_53A_54C_55F_67L_, Q9UKT9]

>  <log2 fold change of degron read counts>
0.505

$$$$
>  <entry.sequence>
LMCNQCGFMCTQKGNLLRHIKL [46L_47M_49N_50Q_52G_53F_54M_55C_67L_, Q9UKT9]

>  <log2 fold change of degron read counts>
-1.58

$$$$
>  <entry.sequence>
FHCPICGHWFTQKGNLLRHIKL [46F_47H_49P_50I_52G_53H_54W_55F_67L_, Q9UKT9]

>  <log2 fold change of degron read counts>
-1.67

$$$$
>  <entry.sequence>
FLCDVCGAGFTQKGNLLRHIKL [46F_47L_49D_50V_52G_53A_54G_55F_67L_, Q9UKT9]

>  <log2 fold change of degron read counts>
-0.0363

$$$$
>  <entry.sequence>
FLCPICGRGFTQKGNLLRHIKL [46F_47L_49P_50I_52G_53R_54G_55F_67L_, Q9UKT9]

>  <log2 fold change of degron read counts>
-1.58

$$$$
>  <entry.sequence>
FNCEICGARFTQKGNLLRHIKL [46F_47N_49E_50I_52G_53A_54R_55F_67L_, Q9UKT9]

>  <log2 fold change of degron read counts>
2.49

$$$$
>  <entry.sequence>
FKCEICGARFTQKGNLLRHIKL [46F_47K_49E_50I_52G_53A_54R_55F_67L_, Q9UKT9]

>  <log2 fold change of degron read counts>
-1.5

$$$$
>  <entry.sequence>
FGCEICGARFTQKGNLLRHIKL [46F_47G_49E_50I_52G_53A_54R_55F_67L_, Q9UKT9]

>  <log2 fold change of degron read counts>
3.15

$$$$
>  <entry.sequence>
FKCEVCGACFTQKGNLLRHIKL [46F_47K_49E_50V_52G_53A_54C_55F_67L_, Q9UKT9]

>  <log2 fold change of degron read counts>
-0.0189

$$$$
